system: Amaranthus retoflexus (AMARE); assay: Post-emergence test, herbicidal damage; format: in vivo; design: key: 5=81-100%; 4=61-80%; 3=41-60%; 2=21-40%; 1=1-20%; 0=no damage to the plant; -=not tested; settings: sprayed after 8 days cultivation, 1000 g/ha unless otherwise stated, evaluated after 13 days, five-point scale
recordedMetric: percentage damage caused to the plant, AMARE

Sample records with percentage damage caused to the plant, AMARE:
Cc1cc(-c2ccc(Cl)c(Cl)c2)c(C(=O)O)c(=O)[nH]1
0
C=Cc1c(-c2ccc(Cl)c(Cl)c2)c(C(=O)O)c(=O)n(-c2ccc(Cl)cc2F)c1C
3 (3=41-60%)
Cc1cc(-c2ccc(Cl)c(Cl)c2)c(C(=O)O)c(=O)n1Cc1ccc(F)cc1F
1 (1=1-20%)
Cc1cc(-c2ccc(Cl)c(Cl)c2)c(C(=O)O)c(=O)n1Cc1ccc(Cl)cc1F
3 (3=41-60%)
Cc1cc(-c2ccc(Cl)c(Cl)c2)c(C(=O)O)c(=O)n1-c1ccc(F)cc1
1 (1=1-20%)

# batch size: 2; output percentage damage caused to the plant, AMARE per entry
1. CC#Cc1c(-c2ccc(Cl)c(Cl)c2)c(C(=O)O)c(=O)n(-c2cc(F)cc(Cl)c2)c1C
2. Cc1c(Cl)c(-c2ccc(Cl)c(Cl)c2)c(C(=O)O)c(=O)n1-c1ccc(F)cc1

1: 0; 2: 4 (4=61-80%)

List reported percentage damage caused to the plant, AMARE for each of these compounds:
1. Cc1c(Cl)c(-c2ccc(Cl)c(Cl)c2)c(C(=O)O)c(=O)n1Cc1ccc(C(F)(F)F)cc1F
2. Cc1c(-c2ccc(Cl)c(Cl)c2)c(C(=O)O)c(=O)n(C)c1C
3. Cc1[nH]c(=O)c(C(=O)O)c(-c2ccc(Cl)c(Cl)c2)c1C#N

1: 3 (3=41-60%); 2: 1 (1=1-20%); 3: 0

Hello, I would appreciate it if you could give percentage damage caused to the plant, AMARE for each entry below.
1. Cc1c(C2CC2)c(-c2ccc(Cl)c(Cl)c2)c(C(=O)O)c(=O)n1-c1ccc(F)cc1F
2. Cc1cc(-c2ccc(Cl)c(Cl)c2)c(C(=O)O)c(=O)n1-c1ccc(Cl)cc1F
3. Cc1c(Cl)c(-c2ccc(Cl)c(Cl)c2)c(C(=O)O)c(=O)n1C
4. Cc1cc(-c2ccc(Cl)c(Cl)c2)c(C(=O)O)c(=O)n1-c1ccc(F)cc1F
5. Cc1c(Cl)c(-c2ccc(Cl)c(Cl)c2)c(C(=O)O)c(=O)n1-c1cccc(C(F)(F)F)c1F
6. Cc1c(Br)c(-c2ccc(Cl)c(Cl)c2)c(C(=O)O)c(=O)n1C
7. Cc1c(Cl)c(-c2ccc(Cl)c(Cl)c2)c(C(=O)O)c(=O)n1-c1ccc(Cl)cc1F
8. Cc1cc(-c2ccc(Cl)c(Cl)c2)c(C(=O)O)c(=O)n1-c1cccc(C(F)(F)F)c1F

3 (3=41-60%)
2 (2=21-40%)
1 (1=1-20%)
1 (1=1-20%)
4 (4=61-80%)
1 (1=1-20%)
3 (3=41-60%)
1 (1=1-20%)

Record percentage damage caused to the plant, AMARE for all entries; do not skip any.
1. Cc1cc(-c2ccc(Cl)c(Cl)c2)c(C(=O)O)c(=O)n1-c1ncc(Cl)cc1F
2. CCc1c(-c2ccc(Cl)c(Cl)c2)c(C(=O)O)c(=O)n(-c2ccc(Cl)cc2F)c1C
3. Cc1c(-c2ccc(Cl)c(Cl)c2)c(C(=O)O)c(=O)n(-c2ccc(Cl)cc2F)c1C

[0, "4 (4=61-80%)", "3 (3=41-60%)"]

Please give percentage damage caused to the plant, AMARE, item by item, for the list that follows.
1. Cc1[nH]c(=O)c(C(=O)O)c(-c2ccc(Cl)c(Cl)c2)c1Br
2. Cc1cc(-c2ccc(Cl)c(Cl)c2)c(C(=O)O)c(=O)n1-c1cccc(C(F)(F)F)c1
3. Cc1c(Br)c(-c2ccc(Cl)c(Cl)c2)c(C(=O)O)c(=O)n1Cc1ccc(C#N)cc1F
4. C=Cc1c(-c2ccc(Cl)c(Cl)c2)c(C(=O)O)c(=O)n(-c2ccc(F)cc2F)c1C
5. Cc1c(C2CC2)c(-c2ccc(Cl)c(Cl)c2)c(C(=O)O)c(=O)n1Cc1ccc(Cl)cc1F
6. Cc1[nH]c(=O)c(C(=O)O)c(-c2ccc(Cl)c(Cl)c2)c1C

1: 5 (5=81-100%); 2: 4 (4=61-80%); 3: 3 (3=41-60%); 4: 1 (1=1-20%); 5: 0; 6: 1 (1=1-20%)

// for each compound in input: emit percentage damage caused to the plant, AMARE
1. Cc1c(Cl)c(-c2ccc(Cl)c(Cl)c2)c(C(=O)O)c(=O)n1-c1ccc(Cl)cc1
2. Cc1cc(-c2ccc(Cl)c(Cl)c2)c(C(=O)O)c(=O)n1Cc1ccc(C(F)(F)F)cc1F
3. COCc1c(-c2ccc(Cl)c(Cl)c2)c(C(=O)O)c(=O)n(-c2ccc(F)cc2F)c1C
4. CCc1c(C)[nH]c(=O)c(C(=O)O)c1-c1ccc(Cl)c(Cl)c1

4 (4=61-80%)
0
2 (2=21-40%)
0

Hey, quick one: what's percentage damage caused to the plant, AMARE for each of these?
1. Cc1cc(-c2ccc(Cl)c(Cl)c2)c(C(=O)O)c(=O)n1-c1ncc(Cl)cc1Cl
2. Cc1c(O)c(-c2ccc(Cl)c(Cl)c2)c(C(=O)O)c(=O)n1-c1ccc(Cl)cc1F

[0, "2 (2=21-40%)"]

----------
test system: Echinochloa crus-galli (ECHCG); assay: Post-emergence test, herbicidal damage; type: in vivo; parameters: key: 5=81-100%; 4=61-80%; 3=41-60%; 2=21-40%; 1=1-20%; 0=no damage to the plant; -=not tested; conditions: sprayed after 8 days cultivation, 1000 g/ha unless otherwise stated, evaluated after 13 days, five-point scale
recordedMetric: percentage damage caused to the plant, ECHCG
Answers are plain numbers.

// below: answered molecules
CCc1c(C)[nH]c(=O)c(C(=O)O)c1-c1ccc(Cl)c(Cl)c1
0
Cc1cc(-c2ccc(Cl)c(Cl)c2)c(C(=O)O)c(=O)n1-c1ccc(Cl)cc1F
0

Attention now turns to another entry.
For Echinochloa crus-galli (ECHCG), provide percentage damage caused to the plant, ECHCG of CC#Cc1c(-c2ccc(Cl)c(Cl)c2)c(C(=O)O)c(=O)n(-c2cc(F)cc(Cl)c2)c1C please.
0

----------
Can you tell me percentage damage caused to the plant, IPOHE for the items I'm about to list?
test system: Ipomoea hederacea (IPOHE); experiment: Pre-emergence test, herbicidal damage; assay type: in vivo; conditions: 1000 g/ha unless otherwise stated, evaluated after 13 days, five-point scale

The cases that follow already have their percentage damage caused to the plant, IPOHE on record.
Cc1c(Cl)c(-c2ccc(Cl)c(Cl)c2)c(C(=O)O)c(=O)n1-c1ccc(Cl)cc1F [Compound 25]
1 (1=1-20%)
CC#Cc1c(-c2ccc(Cl)c(Cl)c2)c(C(=O)O)c(=O)n(-c2cc(F)cc(Cl)c2)c1C [Compound 40]
0

Fill in percentage damage caused to the plant, IPOHE for each of the 2 molecules listed.
1. Cc1c(Cl)c(-c2ccc(Cl)c(Cl)c2)c(C(=O)O)c(=O)n1-c1ccc(Cl)cc1 [Compound 3]
2. Cc1c(Br)c(-c2ccc(Cl)c(Cl)c2)c(C(=O)O)c(=O)n1C [Compound 5]

1. 0
2. 0

----------
system: Ipomoea hederacea (IPOHE); assay: Pre-emergence test, herbicidal damage; assay type: in vivo; conditions: 1000 g/ha unless otherwise stated, evaluated after 13 days, five-point scale
Provide the recorded percentage damage caused to the plant, IPOHE for the entries that follow.

Cc1c(C2CC2)c(-c2ccc(Cl)c(Cl)c2)c(C(=O)O)c(=O)n1Cc1ccc(Cl)cc1F [Compound 39]
1 (1=1-20%)

For every item below, please supply its percentage damage caused to the plant, IPOHE.
1. COCc1c(-c2ccc(Cl)c(Cl)c2)c(C(=O)O)c(=O)n(-c2ccc(F)cc2F)c1C [Compound 36]
2. Cc1c(-c2ccc(Cl)c(Cl)c2)c(C(=O)O)c(=O)n(-c2ccc(Cl)cc2F)c1C [Compound 26]
3. Cc1c(Br)c(-c2ccc(Cl)c(Cl)c2)c(C(=O)O)c(=O)n1Cc1ccc(C#N)cc1F [Compound 33]
4. Cc1c(C2CC2)c(-c2ccc(Cl)c(Cl)c2)c(C(=O)O)c(=O)n1-c1ccc(F)cc1F [Compound 37]
5. Cc1c(Cl)c(-c2ccc(Cl)c(Cl)c2)c(C(=O)O)c(=O)n1-c1ccc(F)cc1 [Compound 20]
6. Cc1c(Br)c(-c2ccc(Cl)c(Cl)c2)c(C(=O)O)c(=O)n1-c1ccc(F)cc1F [Compound 29]

["1 (1=1-20%)", "1 (1=1-20%)", "1 (1=1-20%)", "1 (1=1-20%)", "1 (1=1-20%)", "1 (1=1-20%)"]

----------
tested on: Setaria faberi (SETFA); experiment: Pre-emergence test, herbicidal damage; format: in vivo; conditions: 1000 g/ha unless otherwise stated, evaluated after 13 days, five-point scale
recordedMetric: percentage damage caused to the plant, SEFTA

Dear colleague, could you please provide percentage damage caused to the plant, SEFTA for the compounds listed below?
1. Cc1c(C2CC2)c(-c2ccc(Cl)c(Cl)c2)c(C(=O)O)c(=O)n1-c1ccc(F)cc1F
2. Cc1c(C2CC2)c(-c2ccc(Cl)c(Cl)c2)c(C(=O)O)c(=O)n1Cc1ccc(Cl)cc1F
3. Cc1c(-c2ccc(Cl)c(Cl)c2)c(C(=O)O)c(=O)n(-c2ccc(Cl)cc2F)c1C
4. Cc1c(Cl)c(-c2ccc(Cl)c(Cl)c2)c(C(=O)O)c(=O)n1-c1ccc(F)cc1

1 (1=1-20%)
2 (2=21-40%)
1 (1=1-20%)
2 (2=21-40%)
